Just for reference, paper PMC12477777 is where these values come from.

# assayDetails: Kinetic modeling of urinary aPM with a pseudo one-compartment nonlinear mixed-effects model after α-pinene inhalation
# Type: in vivo, human
# studyConditions: human urine after 10 min α-pinene inhalation; F normalized to the sum of 22 detected metabolites
Binary classification by F (%), fraction of metabolite generated from absorbed α-pinene, with 1% as an inclusive lower bound for label 1; all other cases are label 0.

[Q] # check: F (%), fraction of metabolite generated from absorbed α-pinene of CC1(C)C2CCC(C(=O)OC3OC(C(=O)O)C(O)C(O)C3O)C1C2 (single isomer, unassigned) [aPM4b, Dihydromyrtenic acid-GlcA] is greater than or equal to 1%
[A] label 1

[Q] # check: F (%), fraction of metabolite generated from absorbed α-pinene of CC1(C)C2CC=C(COC3OC(C(=O)O)C(O)C(O)C3O)C1C2 (stereo not drawn) [aPM2c, myrtenol glucuronide] is greater than or equal to 1%
[A] label 1

[Q] # check: F (%), fraction of metabolite generated from absorbed α-pinene of CC1(C)C2CC1C(OC1OC(C(=O)O)C(O)C(O)C1O)C=C2C(=O)O (single isomer, unassigned) [aPM5d, Myrtenic acid-4-O-GlcA] is greater than or equal to 1%
[A] label 0

[Q] # check: F (%), fraction of metabolite generated from absorbed α-pinene of CC1(C)C2CC=C(C(=O)OC3OC(C(=O)O)C(O)C(O)C3O)C1C2 (single isomer, unassigned) is greater than or equal to 1%
[A] label 1

[Q] # check: F (%), fraction of metabolite generated from absorbed α-pinene of CC1(C)C2CC1C(OC1OC(C(=O)O)C(O)C(O)C1O)C=C2C(=O)O (single isomer, unassigned) [aPM5g, Myrtenic acid-4-O-GlcA] is greater than or equal to 1%
[A] label 1

[Q] # check: F (%), fraction of metabolite generated from absorbed α-pinene of CC1(C)C2CC1C(OC1OC(C(=O)O)C(O)C(O)C1O)C=C2C(=O)O (single isomer, unassigned) [aPM5b, Myrtenic acid-4-O-GlcA] is greater than or equal to 1%
[A] label 1

---

# assayDetails: aPM in mouse urine after i.p. injection of (+)-α-pinene or (−)-α-pinene
# Type: in vivo, mice (C57BL/6)
# studyConditions: mouse urine collected overnight, 50 mg/kg i.p. (+)-α-pinene; 50 mg/kg
quantityKind: (1R)-(+)-α-Pinene (Average), proportion of aPM in mouse urine (%)
All answers are understood in %, so give the number only.

[Q] Indicate its recorded (1R)-(+)-α-Pinene (Average), proportion of aPM in mouse urine; the molecule in question is CC1(C)C2CCC(C(=O)OC3OC(C(=O)O)C(O)C(O)C3O)C1C2 (single isomer, unassigned) [aPM4c, Dihydromyrtenic acid-GlcA]
[A] 0.0

[Q] Indicate its recorded (1R)-(+)-α-Pinene (Average), proportion of aPM in mouse urine; the molecule in question is CC1(C)C2CC1C(OC1OC(C(=O)O)C(O)C(O)C1O)C=C2C(=O)O (single isomer, unassigned) [aPM5g, Myrtenic acid-4-O-GlcA]
[A] 0.0

[Q] Indicate its recorded (1R)-(+)-α-Pinene (Average), proportion of aPM in mouse urine; the molecule in question is CC1(C)C2CCC(C(=O)OC3OC(C(=O)O)C(O)C(O)C3O)C1C2 (single isomer, unassigned) [aPM4b, Dihydromyrtenic acid-GlcA]
[A] 0.0

[Q] Indicate its recorded (1R)-(+)-α-Pinene (Average), proportion of aPM in mouse urine; the molecule in question is CC1(C)C2CCC(C(=O)OC3OC(C(=O)O)C(O)C(O)C3O)C1C2 (single isomer, unassigned) [aPM4e, Dihydromyrtenic acid-GlcA]
[A] 0.1

[Q] Indicate its recorded (1R)-(+)-α-Pinene (Average), proportion of aPM in mouse urine; the molecule in question is CC1(C)C2CC1C(OC1OC(C(=O)O)C(O)C(O)C1O)C=C2C(=O)O (single isomer, unassigned) [aPM5b, Myrtenic acid-4-O-GlcA]
[A] 0.0

[Q] Indicate its recorded (1R)-(+)-α-Pinene (Average), proportion of aPM in mouse urine; the molecule in question is CC1(C)C2CC1C(OC1OC(C(=O)O)C(O)C(O)C1O)C=C2C(=O)O (single isomer, unassigned) [aPM5c, Myrtenic acid-4-O-GlcA]
[A] 0.0
